The following compounds are shown together with reported pIC50 values.
# Tested on: Porphyromonas gingivalis (P.g.)
# Condition Description: read-out: IC50 of single drug; Table 14, P. g.; drug alone
// returns pIC50 (minus log10 of molar concentration), number only

| Compound | Result Number |
| --- | --- |
| N.N.[Cl][Pt][Cl] [Pt] | 4.16 |

Moving on to the next compound.
**Query** Name the value of pIC50 reported for [Cl][Ag] [AgCl] when tested on Porphyromonas gingivalis (P.g.).
**Result** 4.85

* * *

# System: Porphyromonas gingivalis (P.g.)
# Method: microbe, parasite or virus in culture
# Condition Description: read-out: IC50, 50% inhibition on bacterial proliferation, P. g.
Overview of reported IC50 across a group of compounds:
Entry rule: numbers only, all in µg/mL.

// below: answered compounds
| Compound | Value Units | Result Number |
| --- | --- | --- |
| Cc1nc(C)c(C)nc1C | µg/mL | 37 |
| CCCCCCc1ccc(O)cc1O | µg/mL | 20 |

**Query** Return value of IC50 for input CC12CC3CC(C)(C1)CC(N)(C3)C2 [Memantine] , no commentary.
**Result** 59

**Query** Output measured IC50 for this item: CO[C@H]1/C=C/O[C@@]2(C)Oc3c(C)c(O)c4c(O)c(c(/C=N/N5CCN(C)CC5)c(O)c4c3C2=O)NC(=O)/C(C)=C\C=C\[C@H](C)[C@H](O)[C@@H](C)[C@@H](O)[C@@H](C)[C@H](OC(C)=O)[C@@H]1C
**Result** 0.45
